test system: Helicoverpa armigera; experiment: Insecticidal activity against fourth-instar larval stage of Helicoverpa armigera field strain Ngong isolated from cotton plant assessed as mortality applied topically onto thorax measured after 48 hr; assay type: functional
Measured endpoint: LD50 (microgAi/g)
Expressed in microgAi/g, but write only the number.

Below are worked cases with known answers.
* Clc1ccc(C(c2ccc(Cl)cc2)C(Cl)(Cl)Cl)cc1 | 36.8
* COC(=O)N(C(=O)N1CO[C@@]2(C(=O)OC)Cc3cc(Cl)ccc3C2=N1)c1ccc(OC(F)(F)F)cc1 | 0.9

--- query ---
// lookup LD50 for CCOc1ccc(C(C)(C)COCc2cccc(Oc3ccccc3)c2)cc1 136.6

----------
tested on: Helicoverpa armigera; experiment: Insecticidal activity against fourth-instar larval stage of pyrethroid-resistance Helicoverpa armigera laboratory strain GS-RR06 assessed as mortality applied topically onto thorax measured after 48 hr; type: functional
Rule: LD50 below 30 microgAi/g gives satisfied. Equal to or above 30 microgAi/g gives not satisfied.

Consider the worked cases shown below.
- Clc1ccc(C(c2ccc(Cl)cc2)C(Cl)(Cl)Cl)cc1: satisfied
- CCCSP(=O)(OCC)Oc1ccc(Br)cc1Cl (configuration not stated): satisfied
- O=S1OCC2C(CO1)C1(Cl)C(Cl)=C(Cl)C2(Cl)C1(Cl)Cl (configuration not stated) [ENDOSULFAN]: satisfied
- CC1(C)C(C=C(Cl)Cl)C1C(=O)OC(C#N)c1cccc(Oc2ccccc2)c1 (configuration not stated): not satisfied
- CCOc1ccc(C(C)(C)COCc2cccc(Oc3ccccc3)c2)cc1: not satisfied

Identify whether the compound CC1(C)[C@H](C(=O)O[C@H](C#N)c2cccc(Oc3ccccc3)c2)[C@@H]1C=C(Br)Br records LD50 below 30 microgAi/g. not satisfied

Identify whether the compound COC(=O)N(C(=O)N1CO[C@@]2(C(=O)OC)Cc3cc(Cl)ccc3C2=N1)c1ccc(OC(F)(F)F)cc1 records LD50 below 30 microgAi/g. satisfied
